test system: CAKI-1 renal; test: NCI tumour cell line growth inhibition, 48 h
Parameter Measured: TGI

Molecule	Experimental Target	TGI
C=C(C)C1CC2(C)C(C)CC(O)CC2C(OC(=O)C=C(C)C)C1O (stereo unspecified)	CAKI-1 renal	> 100 µM

Prompt: Give the measured TGI for "CCOC(=O)c1ccc(N=C/C=C(\Nc2ccc(C(=O)OCC)cc2)C23CC4CC(CC(C4)C2)C3)cc1"
Response: > 100 µM

Prompt: Give the measured TGI for "CNC(=O)OCc1c(COC(=O)NC)c(-c2ccc(-c3ccccc3)cc2)n(C)c1C"
Response: 5.14 µM

Prompt: Give the measured TGI for O=C(O)c1c2c(cc3c1CC(Cc1ccccc1)C3=O)CCC2 (stereo unspecified)
Response: > 100 µM

Prompt: Give the measured TGI for "O=C1NC(=S)S/C1=C/c1ccc2c(c1)OCO2"
Response: > 100 µM
